Cited source for all entries: PubChem BioAssay (NCI)

Kindly supply the reported TGI values for the records listed here.
test system: OVCAR-3 ovarian; test: NCI tumour cell line growth inhibition, 48 h

Query `O=C(Nc1cccc(Cl)c1)c1ccc(NC2=C(Cl)C(=O)N(Cc3ccccc3)C2=O)cc1` on OVCAR-3 ovarian; TGI returned: 13.8 µM

Let me check: `COc1ccc(C(=O)Cc2c(C(=O)c3ccccc3)c3ccccc3n2C(=O)c2ccccc2)cc1` , system OVCAR-3 ovarian, measured TGI is > 100 µM

The compound `Oc1cc(O)c2c(-c3c(O)c(-c4ccc(O)c(O)c4)[o+]c4cc(O)cc(O)c34)c(O)c(-c3ccc(O)c(O)c3)[o+]c2c1` , tested on OVCAR-3 ovarian, showed TGI of 46.2 µM

Entry O=C1c2ccccc2NC(=O)C2C1C(c1ccccc1)CC2(O)c1ccccc1 (centres undefined) ; assay system OVCAR-3 ovarian; TGI recorded at > 100 µM

TGI value, target or system OVCAR-3 ovarian, for COC(=O)C(=O)OC1(C(C)=O)CC2(c3ccccc3)OC1(c1ccccc1)c1ccccc12 (centres undefined) : 27.9 µM

Short answer on OVCAR-3 ovarian for `Nc1nc(Cl)c2ncn(Cc3ccc(CCl)cc3)c2n1` , TGI: 5.5 µM

The compound CC(=O)OCC1OC(n2c(-c3ccccc3)c(C(C)=O)c(-c3ccc(Cl)cc3)c(C#N)c2=S)C(OC(C)=O)C(OC(C)=O)C1OC(C)=O (centres undefined) on OVCAR-3 ovarian: TGI was > 100 µM

Reported TGI (OVCAR-3 ovarian) for entry `COc1ccc(C(=O)Cn2c(C(=O)/C=C/c3ccco3)nc3ccccc32)cc1` is 72.3 µM

Measured on OVCAR-3 ovarian, CC(=O)[CH-]C(=O)c1ccccc1.CC(=O)[CH-]C(=O)c1ccccc1.CC(C)CCCC(C)[C@H]1CCC2[C@@H]3CC=C4C[C@@H]([O-])CC[C@]4(C)C3CC[C@@]21C.CC[O-].[Ti+4] (some centres undefined) has a documented TGI of > 100 µM

Test item O=C1NC(=O)C2C(=O)NC(=O)C1C2(c1ccccc1)c1cc[nH]c1 (centres undefined) ; OVCAR-3 ovarian; reported TGI was > 100 µM

Reported TGI (OVCAR-3 ovarian) for entry `CC(C)(C)c1cc(C(C)(C)C)c(SS(=O)(=O)O)c(O)c1O` is > 100 µM

# `[O-][n+]1onc2c1CCC(=N\O)/C2=N/Nc1ccccc1` with OVCAR-3 ovarian: TGI is > 100 µM

The compound `Nc1ccc2nc(Nc3ccc(F)cc3)cnc2c1` , tested on OVCAR-3 ovarian, showed TGI of > 100 µM

Observed TGI on OVCAR-3 ovarian, entry Nc1ncnc2c1nc(Cl)n2C1OC2COP(=O)(O)OC2C1O (centres undefined) , equals > 300 µM

Measured on OVCAR-3 ovarian, `O=c1cc2ccccc2nn1Cc1cccc(Cl)c1` has a documented TGI of > 100 µM

Summary line: `O=C(CN1CCN(CCCOc2c(-c3ccccc3)oc3ccccc3c2=O)CC1)Nc1ccc(Cl)cc1C(=O)c1ccccc1Cl` , OVCAR-3 ovarian, reported TGI = 19.5 µM

# `COc1c(OC)c(OC)c2c(c1OC)c(=O)c1ccccc1n2C` with OVCAR-3 ovarian: TGI is > 100 µM

Observed TGI, OVCAR-3 ovarian, `O=C(CSc1nc2ccccc2s1)c1sc2sc3ccccc3[n+]2c1[O-]` : > 100 µM

TGI of `C#CCOc1c(C(=O)OCC)c(=O)n(C)c2ccccc12` , assay on OVCAR-3 ovarian, is > 100 µM
